Entries and their pKd values follow.
# target of assay: CaM (Bos taurus)
# Construct: made in house; host or cells: E. coli BL21 (DE3)
# test details: Competition pull-down with native ligand TRPV1-Ct15
# Format: binding, bovine
# protocol conditions: H14 library; competitor peptide 200 µM; read-out: Surface mapping KD (apparent), competition
FYI, pKd means -log10 of a concentration in mol per litre.

Consider the worked cases shown below.
I'm curious: which pKd was measured for C[C@@H](O)[C@@H](CC(=O)N[C@H]1CCCC[C@@H]1C(=O)N[C@H]1CCCC[C@@H]1C(=O)N[C@@H](CO)CC(=O)N[C@H]1CCCC[C@@H]1C(N)=O)NC(=O)[C@H]1CCCC[C@@H]1N tested on CaM (Bos taurus)? 3.31

Cool, now NC(=O)CC[C@@H](CC(=O)N[C@H]1CCCC[C@@H]1C(N)=O)NC(=O)[C@H]1CCCC[C@@H]1NC(=O)[C@H]1CCCC[C@@H]1NC(=O)C[C@H](CC(=O)O)NC(=O)[C@H]1CCCC[C@@H]1N 3.67

Cool, now CC(C)C[C@@H](CC(=O)N[C@H]1CCCC[C@@H]1C(=O)N[C@H]1CCCC[C@@H]1C(=O)N[C@H](CC(=O)N[C@H]1CCCC[C@@H]1C(N)=O)Cc1ccccc1)NC(=O)[C@H]1CCCC[C@@H]1N 3.79

Cool, now NC(=O)[C@H]1CCCC[C@@H]1NC(=O)C[C@H](Cc1ccccc1)NC(=O)[C@H]1CCCC[C@@H]1NC(=O)[C@H]1CCCC[C@@H]1NC(=O)C[C@H](Cc1ccccc1)NC(=O)[C@H]1CCCC[C@@H]1N 4.33

Cool, now NCCCC[C@@H](CC(=O)N[C@H]1CCCC[C@@H]1C(N)=O)NC(=O)[C@H]1CCCC[C@@H]1NC(=O)[C@H]1CCCC[C@@H]1NC(=O)C[C@H](CC(N)=O)NC(=O)[C@H]1CCCC[C@@H]1N 3.60

Cool, now CC(C)[C@@H](CC(=O)N[C@H]1CCCC[C@@H]1C(N)=O)NC(=O)[C@H]1CCCC[C@@H]1NC(=O)[C@H]1CCCC[C@@H]1NC(=O)C[C@H](Cc1c[nH]c2ccccc12)NC(=O)[C@H]1CCCC[C@@H]1N 4.07

***
I'm curious: which pKd was measured for CC[C@H](C)[C@@H](CC(=O)N[C@H]1CCCC[C@@H]1C(=O)N[C@H]1CCCC[C@@H]1C(=O)N[C@H](CC(=O)N[C@H]1CCCC[C@@H]1C(N)=O)Cc1c[nH]c2ccccc12)NC(=O)[C@H]1CCCC[C@@H]1N tested on CaM (Bos taurus)? 4.06

Cool, now NC(=O)[C@H]1CCCC[C@@H]1NC(=O)C[C@H](Cc1c[nH]c2ccccc12)NC(=O)[C@H]1CCCC[C@@H]1NC(=O)[C@H]1CCCC[C@@H]1NC(=O)C[C@H](Cc1ccc(O)cc1)NC(=O)[C@H]1CCCC[C@@H]1N 3.39

Cool, now NC(=O)CC[C@@H](CC(=O)N[C@H]1CCCC[C@@H]1C(N)=O)NC(=O)[C@H]1CCCC[C@@H]1NC(=O)[C@H]1CCCC[C@@H]1NC(=O)C[C@H](CC(N)=O)NC(=O)[C@H]1CCCC[C@@H]1N 3.65
